Entries and their measured TGI follow.
- Test system: MALME-3M melanoma
- Assay Notes: NCI tumour cell line growth inhibition, 48 h

• CCSc1ncc(Br)c(Sc2nc(N)nc3nc[nH]c23)n1 = 34.3 µM
• CN(C)c1ccc(O[Si](Oc2ccc(N(C)C)cc2)(Oc2ccc(N(C)C)cc2)Oc2ccc(N(C)C)cc2)cc1 = > 100 µM
• Cc1ccc(NC(=O)C(=O)Cc2cccc[n+]2[O-])cc1C = > 100 µM
• Cn1c(NC(=O)NC23CC4CC(CC(C4)C2)C3)nc2ccccc21 = 81.6 µM
• COc1ccc(C23OCC(Cc4cc(OC)c(OC)cc42)C3CO)cc1OC (stereo unspecified) = > 100 µM

# ---- query compound ----
Please report the recorded TGI for O=C(O)/C=C/c1ccncc1 .
> 100 µM

* * *

Reported TGI by item:
- Test system: U251 CNS
- Assay Notes: NCI tumour cell line growth inhibition, 48 h

Below are worked cases with known answers.
• O=C1/C(=C/c2ccc(Cl)cc2)Oc2ccccc21 = > 100 µM
• O=c1cccccc1[O-].O=c1cccccc1[O-].O=c1cccccc1[O-].[Sm+3] = > 100 µM
• O=C(/C(=C/c1ccc(O)cc1)c1ccccc1)c1ccccc1 = 29.7 µM
• O=C1CNN=C(Cn2nc(-c3ccccc3)c3ccccc3c2=O)N1 = > 100 µM

GET /values?readout=TGI&system=U251 CNS&item= COc1ccc(Cc2nc3cc(OC)c(OC)cc3c(=O)[nH]2)cc1
> 100 µM

Notebook entry, U251 CNS assay: TGI of COC(=O)C(NC(=O)c1ccccc1)C(c1c(O)cc(O)cc1O)P(=O)(OC)OC (stereo unspecified) = ?
> 100 µM

* * *

- Test system: PC-3 prostate
- Assay Notes: NCI tumour cell line growth inhibition, 48 h
Quick reference for TGI among some compounds

* c1ccc(-c2c(-c3[nH]c4ccccc4c3-c3ccccc3)[nH]c3ccccc23)cc1 | 10.6 µM
* COc1ccc2c(c1)CC[C@@H]1C2CC[C@]2(C)C(=C=CP(=O)(O)O)CCC12 (stereo not given in full) | > 100 µM
* CCOC(=O)c1cn(CC)c2ccc3c(c2c1=O)S(=O)(=O)C=C3 | > 100 µM
* Cc1cc(C)nc(NS(=O)(=O)c2ccc(Nc3c4ccccc4nc4ccc(C(=O)Nc5ccc(S(=O)(=O)N=C(N)N)cc5)cc34)cc2)n1 | > 100 µM

Could you share which TGI value was measured for O=C(O)CCC1NC(/C(=C/c2ccccc2O)NC(=O)c2ccccc2)OC1=O (stereo not given) ?
> 100 µM

* * *

- Test system: OVCAR-4 ovarian
- Assay Notes: NCI tumour cell line growth inhibition, 48 h
Result Type: TGI

# count of solved cases: 8
- COc1c(O)c2c3c(c1OC)-c1ccccc1CC3N(S(=O)(=O)c1ccc(C)cc1)CC2 (centres undefined): > 50 µM
- COC(=O)[C@@H]1COC(=O)N1: > 100 µM
- C[n+]1c2ccccc2c(C(=O)Nc2ccc(S(=O)(=O)Nc3ncccn3)cc2)c2ccccc21: > 100 µM
- C[n+]1c(-c2ccc(/C=N/NC(=O)C(=O)N/N=C/c3ccc(-c4cn5ccccc5[n+]4C)cc3)cc2)cn2ccccc21: > 100 µM
- CCOc1ccccc1NC(=O)C1=C(C)NC(C)=C(C(=O)Nc2ccccc2OCC)C1c1ccc([N+](=O)[O-])cc1: > 100 µM
- COc1ccc(/C=C/C(C)=N/OCC(=O)Nc2ccc(Cl)cc2)cc1: 9.96 µM
- COc1cc(/C=C\c2cc(OC)c(OC)c(OC)c2)cc(NS(=O)(=O)c2ccc(Cl)cc2)c1OC: > 100 µM
- CC(C)=CCc1c2c(c(O)c3c(=O)c4c(oc13)-c1ccc(O)cc1OC4C=C(C)C)C=CC(C)(C)O2 (centres undefined): 24.8 µM

Form field: reported TGI of CC(=O)NN(c1ccccc1)C1CCN(c2ccccc2)N1C(C)=O (centres undefined)
> 10 µM

* * *

- Test system: MDA-MB-231 breast
- Assay Notes: NCI tumour cell line growth inhibition, 48 h
Definition: the class of an entry is the range in low: < 4 µM; intermediate: ≥ 4 µM and < 30 µM; high: ≥ 30 µM that contains its TGI.

• O=C(O)Cn1ccc(=O)c2cc([N+](=O)[O-])ccc21 = high
• OCCCCC#Cc1ccccc1C#Cc1ccc(C(F)(F)F)cc1 = high
• Nc1ncc(C2[C@H](CNC(=O)c3cc(Br)c[nH]3)C(CNC(=O)c3cc(Br)c[nH]3)[C@@H]2c2cnc(N)[nH]2)[nH]1 (stereo not given in full) = high

Quick check: band for CC(C)(CN1CCCCC1)C(=O)CC(SCCS(=O)(=O)O)c1ccc(Cl)cc1 (stereo not given)
intermediate

Each molecule maps to one class by TGI. Which class for N#CCC1(n2cc(-c3ncnc4[nH]ccc34)cn2)CN(C2CCN(C(=O)c3ccnc(C(F)(F)F)c3F)CC2)C1 ?
high

Class label required: O=c1nc2[nH]c3c(-c4n[nH]c(=O)[nH]c4=O)cccc3c2n[nH]1
high

Hi, small favor: classify NC(N)=NCCCC(NC(=O)c1c2ccccc2nc2ccccc12)C(=O)O (stereo not given) by its TGI when you get a moment.
high

Which category does the recorded TGI put O=NN(CCCl)C(=O)NC1CCCCC1 in?
high

Which category does the recorded TGI put N#Cc1c(N)nc(Sc2ccccc2N)c(C#N)c1-c1ccccc1 in?
high

GET /class?item= Cc1ccc(S(=O)(=O)N2CCC(C(=O)O)(c3ccccc3)CC2)cc1
high

Hi, small favor: classify COc1cc(OC)cc(-c2ccc(-c3ccc(C(=N)N)cn3)s2)c1 by its TGI when you get a moment.
low

Band assignment needed for C[n+]1c2ccccc2c(C(=O)Nc2ccc(S(=O)(=O)Nc3ncccn3)cc2)c2ccccc21 please.
high

Which bin should I file COc1cc2c(cc1OCCCOc1ccc(-c3cc4ccccc4c4ccccc34)cc1)N=C[C@@H]1CCCN1C2=O under?
low

Which class holds NC(N)=N/N=C/c1c(-c2ccncc2)nc2sc(Cl)cn12 ?
low

Which TGI band matches O=C1/C(=C/c2ccc(Cl)cc2)Oc2ccccc21 ?
high

Category lookup for the molecule O=C(c1ccccc1)C(Br)C(Br)c1ccccc1 (stereo not given)
intermediate

Which TGI band matches Cc1ccc(-n2cc(-c3ccc(Cl)cc3)c3c(=N)n(N)cnc32)cc1 ?
intermediate

Lab log: C[C@]12CCC3=NCCN3C1=CC[C@@H]1[C@@H]2CC[C@@]2(C)[C@H]1CC[C@]2(C)O — assign TGI category
high

Which band does CCOC(=O)c1csc(NC(=O)C(C)N2CCOCC2)n1 (stereo not given) fall in?
high

Please classify: Cc1ccc(NCCN(C)C)c2c(=O)c3cc(O)ccc3sc12
intermediate

Note: place this molecule into its band. Item: CCOC(=O)c1c(-c2ccccc2)c(C)cn1C
low

Which category does the recorded TGI put S=c1[nH]n2c(COc3cc(Cl)c(OCc4nnc5sc(=S)[nH]n45)cc3Cl)nnc2s1 in?
high

* * *

- Test system: T-47D breast
- Assay Notes: NCI tumour cell line growth inhibition, 48 h; in the data active means GI50 below about 0.43 µM; inactive means the rest
I would appreciate it if you answered using one of these outcomes: active, inactive

- O=C1CCS/C(=N/S(=O)(=O)c2ccc(N3N=C4c5ccccc5CC4C3c3cccs3)cc2)N1Cc1ccccc1 (centres undefined): inactive
- COc1c(O)c2c3c(c1OC)-c1ccccc1CC3N(S(=O)(=O)c1ccc(C)cc1)CC2 (centres undefined): inactive
- C=C(Cn1c2ccccc2c(=O)c2ccccc21)c1ccc(C(=O)Nc2ccccc2N)cc1: inactive

// return assay outcome for O=C(OC[C@@H]1CO1)c1cccc2c(=O)c3ccccc3[nH]c12
inactive

Test call for this molecule, please: CC1=C(CNO)C2=C(C)C3(CC3)[C@@](C)(O)C(=O)C2=C1
inactive

For COc1ccc(OCC(O)CN2CCN(c3ccc(Cl)cc3)CC2)cc1 (centres undefined) , what call appears in the results of this test?
inactive

* * *

- System: CCRF-CEM leukemia
- Assay Notes: NCI tumour cell line growth inhibition, 48 h
Form field: TGI (one value per entry).

Examples from the recorded data:
• C/C(CC(=O)Nc1cccc([N+](=O)[O-])c1)=N\NC(=O)C[n+]1ccccc1 = > 100 µM
• COC(=O)c1sc(=NC(=S)N2CCCCC2)sc1C(=O)OC = > 100 µM

Can you look up the measured TGI of O=C(O)C1(C(O)c2ccccc2)SCCCS1 (centres undefined) for me?
> 10 µM

If you can, please state the reported TGI value of CC(NNC(=O)c1ccncc1)c1ccc(Cl)cc1Cl (centres undefined) .
> 100 µM

Field request: TGI | item: CC(=O)OCC1OC(n2c(=S)n(-c3ccccc3)c(=O)c3cc(Br)cc(Br)c32)C(OC(C)=O)C(OC(C)=O)C1OC(C)=O (centres undefined)
> 100 µM

// returns reported TGI for input COC(=O)C(=O)C(C(=O)C(=O)Nc1ccc(C)c(C)c1)c1nc2ccc([N+](=O)[O-])cc2[nH]c1=O (centres undefined)
> 100 µM

Field request: TGI | item: Nc1ncc(C2[C@H](CNC(=O)c3cc(Br)c[nH]3)C(CNC(=O)c3cc(Br)c[nH]3)[C@@H]2c2cnc(N)[nH]2)[nH]1 (some centres undefined)
> 50 µM

Can you share its TGI? I mean this compound: CC1=C2[C@@H](CC1)[C@]1(C)O[C@@](C3CC3)(C[C@H]1OC(=O)CO)[C@H]2OC(=O)/C=C/c1ccccc1
39.7 µM

Given the entry CC1CCCN1CCCOC(=O)c1ccc(OC2C=CCCC2)cc1 (centres undefined) , report its measured TGI.
66.7 µM
